- PROCEDURE TEXT: PK of compound of Formula (Ia) after single subcutaneous dose of solution formulations in beagle dogs
- Format: in vivo
- SETUP CONDITIONS: male, beagle, dog, plasma, sc, 12 mg/kg, beagle dogs, SC 12 mg/kg, 400 mg/mL solution AA (6.25% poloxamer 188), 2016 h, animals #1-#3

| SMILES REPR | concentration at 2016 h |
| --- | --- |
| CC(C)(C#Cc1ccc(-c2ccc(Cl)c3c(NS(C)(=O)=O)nn(CC(F)(F)F)c23)c([C@H](Cc2cc(F)cc(F)c2)NC(=O)Cn2nc(C(F)(F)F)c3c2C(F)(F)[C@@H]2C[C@H]32)n1)S(C)(=O)=O | 10.2 nM |

====

- PROCEDURE TEXT: PK of compound of Formula (Ia) after single subcutaneous dose of solution formulations in beagle dogs
- Assay type: in vivo
- SETUP CONDITIONS: male, beagle, dog, plasma, sc, 6 mg/kg, 48.0 h; individual dogs; SC 6 mg/kg; solution V, 300 mg/mL
OBSERVED PROPERTY: concentration at 48 h

| SMILES REPR | OBSERVED PROPERTY | ASSAY RESULT |
| --- | --- | --- |
| CC(C)(C#Cc1ccc(-c2ccc(Cl)c3c(NS(C)(=O)=O)nn(CC(F)(F)F)c23)c([C@H](Cc2cc(F)cc(F)c2)NC(=O)Cn2nc(C(F)(F)F)c3c2C(F)(F)[C@@H]2C[C@H]32)n1)S(C)(=O)=O | concentration at 48 h | 37.1 nM |

====

- PROCEDURE TEXT: PK of compound of Formula (Ia) after single subcutaneous dose of solution formulations in beagle dogs
- Assay type: in vivo
- SETUP CONDITIONS: male, beagle, dog, plasma, sc, 12 mg/kg, male beagle dogs, single SC 12 mg/kg, 500 mg/mL solution X (5.00% ethanol, 1.91% poloxamer 188), mean ± SD, n = 3; read-out: AUC0-2253 h
- Description: Formulations containing the compound of Formula (Ia), or a pharmaceutically acceptable salt thereof, were prepared as solutions and optionally administered subcutaneously or intramuscularly to rats, rabbits, and/or dogs. A solution of about 400 mg/mL of the compound of Formula (Ia) having 17.00 w/w % water, 36.40 w/w % PEG 300, 35.20 w/w % of a sodium salt of a compound of Formula (Ia), 5.00 w/w % ethanol, and 6.40 w/w % poloxamer 188 was prepared. […]
OBSERVED PROPERTY: AUC(0-t) (µM·h)

| SMILES REPR | ASSAY RESULT |
| --- | --- |
| CC(C)(C#Cc1ccc(-c2ccc(Cl)c3c(NS(C)(=O)=O)nn(CC(F)(F)F)c23)c([C@H](Cc2cc(F)cc(F)c2)NC(=O)Cn2nc(C(F)(F)F)c3c2C(F)(F)[C@@H]2C[C@H]32)n1)S(C)(=O)=O | 124 |

====

- PROCEDURE TEXT: PK of compound of Formula (Ia) after single intramuscular dose of solution formulations in Wistar Han rats
- Assay type: in vivo
- SETUP CONDITIONS: male, Wistar Han, rat, plasma, intramuscular, 100 mg/kg, Solution J (~400 mg/mL, poloxamer 188); IM 100 mg/kg; Wistar Han rats; individual animals #1-#4; 96.0 h; read-out: Plasma concentration

| MOLECULE | MEASUREMENT UNITS | concentration at 96 h |
| --- | --- | --- |
| CC(C)(C#Cc1ccc(-c2ccc(Cl)c3c(NS(C)(=O)=O)nn(CC(F)(F)F)c23)c([C@H](Cc2cc(F)cc(F)c2)NC(=O)Cn2nc(C(F)(F)F)c3c2C(F)(F)[C@@H]2C[C@H]32)n1)S(C)(=O)=O [compound of Formula (Ia)] | nM | 506 |
